Catalogue of binders with associated dissociation constant
Target: T1, human integrin αvβ5 (human, UniProt P06756 31-992; P18084 24-719, limits assumed)
T1 construct: Heterodimer flowed as analyte at 30, 100, 300 and 1,000 nM in HEPES buffer with 5 mM MgCl2
T1 sequence (P06756 31-992 limits assumed, chain 1 of 2): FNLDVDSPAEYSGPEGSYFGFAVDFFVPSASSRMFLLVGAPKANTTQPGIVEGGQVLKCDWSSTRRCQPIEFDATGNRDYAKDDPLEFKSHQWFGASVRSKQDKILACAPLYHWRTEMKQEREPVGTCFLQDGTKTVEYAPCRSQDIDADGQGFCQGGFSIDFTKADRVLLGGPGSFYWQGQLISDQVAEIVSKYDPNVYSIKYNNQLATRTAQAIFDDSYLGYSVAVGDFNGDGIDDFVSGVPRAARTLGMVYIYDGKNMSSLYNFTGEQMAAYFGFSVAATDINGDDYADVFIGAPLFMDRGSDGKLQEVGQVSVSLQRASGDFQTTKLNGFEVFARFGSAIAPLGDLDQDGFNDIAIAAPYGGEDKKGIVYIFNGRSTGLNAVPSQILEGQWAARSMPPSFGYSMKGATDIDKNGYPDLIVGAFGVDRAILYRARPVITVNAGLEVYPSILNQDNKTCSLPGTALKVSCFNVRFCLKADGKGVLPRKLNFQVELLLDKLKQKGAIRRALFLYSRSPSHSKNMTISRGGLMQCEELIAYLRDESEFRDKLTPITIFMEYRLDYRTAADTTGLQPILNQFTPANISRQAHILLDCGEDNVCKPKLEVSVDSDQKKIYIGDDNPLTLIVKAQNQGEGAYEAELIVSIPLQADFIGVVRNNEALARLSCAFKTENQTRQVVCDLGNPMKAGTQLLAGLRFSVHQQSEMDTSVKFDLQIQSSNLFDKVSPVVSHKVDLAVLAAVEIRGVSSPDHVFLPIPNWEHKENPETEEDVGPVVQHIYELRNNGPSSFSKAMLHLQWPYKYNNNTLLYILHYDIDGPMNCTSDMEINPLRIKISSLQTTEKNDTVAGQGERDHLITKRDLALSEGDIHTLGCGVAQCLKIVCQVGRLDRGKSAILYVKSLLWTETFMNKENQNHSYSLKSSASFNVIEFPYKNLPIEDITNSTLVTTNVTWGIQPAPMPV
T1 sequence (P18084 24-719 limits assumed, chain 2 of 2): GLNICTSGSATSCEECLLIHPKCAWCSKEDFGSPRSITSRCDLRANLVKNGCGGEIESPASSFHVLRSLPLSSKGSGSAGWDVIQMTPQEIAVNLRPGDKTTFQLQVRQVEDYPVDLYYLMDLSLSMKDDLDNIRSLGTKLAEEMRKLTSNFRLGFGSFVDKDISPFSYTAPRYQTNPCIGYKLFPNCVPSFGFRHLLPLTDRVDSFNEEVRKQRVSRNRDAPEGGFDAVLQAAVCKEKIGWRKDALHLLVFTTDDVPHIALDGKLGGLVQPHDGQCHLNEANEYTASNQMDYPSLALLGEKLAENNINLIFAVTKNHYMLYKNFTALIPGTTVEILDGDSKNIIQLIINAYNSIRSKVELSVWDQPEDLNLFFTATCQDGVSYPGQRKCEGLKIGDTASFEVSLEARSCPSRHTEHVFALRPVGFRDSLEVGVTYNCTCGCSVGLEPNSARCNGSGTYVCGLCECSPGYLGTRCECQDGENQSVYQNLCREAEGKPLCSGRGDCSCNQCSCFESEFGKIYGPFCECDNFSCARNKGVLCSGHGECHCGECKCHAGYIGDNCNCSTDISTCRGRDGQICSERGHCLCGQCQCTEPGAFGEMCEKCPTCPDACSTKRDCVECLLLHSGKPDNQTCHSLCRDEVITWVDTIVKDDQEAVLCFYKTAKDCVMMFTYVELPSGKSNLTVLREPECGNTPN
Assay: SPR, Biacore 3000, peptide immobilised; A = KD 50 nM or less
Starred links: 1 amine or outer side, 2 acyl side, 3 side chain; linkers in the order of their positions; H or OH if unused. Positions of bridges follow the written chain, without caps; N, C: chain ends. Non-standard residues stand in square brackets, D forms with d. Primed or numbered codes have the meaning given here. No end group written: not given here. Dab(acetyl)″ = 2-amino-4-(acetylamino)butanoic acid, acetyl CH3 carbon bonded to the S of Hcy (S-CH2-C(=O)-NH-), O=C(C[*:3])NCC[C@H](N[*:1])C(=O)[*:2]; Dab(acetyl) = 2-amino-4-acetylamino-butanoic acid residue (N-γ-acetyl-diaminobutyric acid), CC(=O)NCC[C@H](N[*:1])C(=O)[*:2]; hCys = N[C@@H](CCS)C(=O)O
quantityName: dissociation constant

binder="AXVPRGDTFAXA (not fully specified; A-(Hcy)-VPRGDTFA(Dab(acetyl))A; thioether bond Hcy-Dab(acetyl), no lysine) [Cyclic peptide 125]" quantityname="dissociation constant" observedresult="≤ 50 nM"
binder="KKK[hCys]VPRGDSFA[Dab(acetyl)″] (thioether 4-13) [Cyclic peptide 102]" quantityname="dissociation constant" observedresult="≤ 50 nM"
binder="KKKA[hCys]VTRGDTFR[Dab(acetyl)]A (thioether 5-14) [Cyclic peptide 89]" quantityname="dissociation constant" observedresult="≤ 50 nM"
